Data origin, for the record: patent US5424196A

SYSTEM: D-amino acid oxidase (DAO; EC-1.4.3.3) from Rhodotorula gracilis ATCC 26217 (Rhodotorula toruloides)
Construct: production of Rhodotorula gracilis cells of high DAO enzyme content
Sequence (P80324 25-368): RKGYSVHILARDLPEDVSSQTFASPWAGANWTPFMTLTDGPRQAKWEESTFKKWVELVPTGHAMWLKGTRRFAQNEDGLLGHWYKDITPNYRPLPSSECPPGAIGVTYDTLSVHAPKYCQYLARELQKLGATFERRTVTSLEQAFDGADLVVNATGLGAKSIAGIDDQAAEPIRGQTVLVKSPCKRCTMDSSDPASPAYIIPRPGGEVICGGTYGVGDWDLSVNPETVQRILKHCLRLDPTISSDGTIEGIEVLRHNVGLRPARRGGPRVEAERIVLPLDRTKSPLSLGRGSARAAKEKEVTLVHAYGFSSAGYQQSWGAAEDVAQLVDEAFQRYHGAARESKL
ASSAY: Dissociation constant of the FAD cofactor from D-amino acid oxidase
CONDITION_CONTEXT: read-out: dissociation constant (bond with the FAD)
READOUT_KIND: pKd
Note on units: pKd is unitless, being -log10 of a concentration expressed in mol/L.

Return reported pKd; argument: `Cc1cc2nc3c(=O)[nH]c(=O)nc-3n(C[C@H](O)[C@H](O)[C@H](O)COP(=O)(O)OP(=O)(O)OC[C@H]3O[C@@H](n4cnc5c(N)ncnc54)[C@H](O)[C@@H]3O)c2cc1C`
7.66
